Test: yeast display, Sf9 membrane polyspecificity reagent, FACS + sequencing; frameworks hold sequencing errors
Property measured: polyreactivity (PSR sort gate)

Use these answered entries as a reference point.
QVHLVESGGGIVQAGGSLRLSCAASGFTFQYNAMGWYRQAPGKERELVAAISYSGTSTYYADSVKGRFTISRDNPKNTVSLQKNSLKPEETAVYYCAVPRLSGSPSAYGYYYWGQGTQVTVSS : high polyreactivity
QVQLVESGGGLVLAGGSLRLSCAASGIIFKIYAMGWFRQAPGKEMELVADITSVGSTKYADSVKGRFTISRDNAKNTVYLQMNSLKPEDTAVYYCATDWVTSHDDDYWGQGTQVTVSS : low polyreactivity
QVQLQESAGALVQAGGSLRQSYAASGYIFPSLSMGRYRQAPGKEREFVAAIGRGSTNNYADSVKGRFTISRDNANNTAYQQMISLKPEDTAVYYCAAAASQLTRHLYWGQGTQVTVSS : low polyreactivity
QVHLVESGGGLVQAGGSLRLSCAASGITFHGYAMGWYRQAPGKERELVAAISDSGSSTYYADSVKGRFTISRDNAKNTVYLQMNSLKPEDTAVYYCAAVSGFYDQYDYWGQGTQVTVSS : low polyreactivity
QVQLVESGGGLVQAGGSLRLSCAASGSTFRYYAMGWYRQAPGKEREFVATINKSGGSTYYADSVKGRFTISRDNEKNTVYLQMNSLKPEDTAVYYGATRKSGGYRYDYWGQGTQVTVSS : high polyreactivity
QVQLVESGGGLVQAGGSLRLSCAASGSIFGYYAMGWYRQAPGKERELVAAISRGGRTNYADSVKGRFTISRDNAKNTVYLQMNSLKPEDTAVYYCAAESYRAYKYDYWGQGTQVTVSS : low polyreactivity

Required: polyreactivity (PSR sort gate), one value per sequence below.
1. QVHLVESCGGLVQAGGSLRLSCAASGSTIETYAMGWNRQAPGKDREMVATISLSGGRTYYADSVKGRFTISRDYAKNTVYLQMNSLKPEDTEVYYCNADGYGNVGGGDSWGQGTQVTVSS
2. QVQLVESGGGLVQAGGSLRLSCAASGSTFDSYAMGWYSQAPGKERELVAAITYSGGRTYYADSVKGRFTISRDNAKNTVYLQMNSLKPEDTAVYYCAATGVFRDEYWGQGTQVTVSS
3. QVQLVESGGGLVQAGGSLRLSCAASRITFYSYAMGWYRQAPGKERELVAAITFRGTSTYYADSVKGRFTISRDNAKNTVYLQMNSQKPEDTAVYYCAAYSGQARGYDYWGQGTQVTVSS
4. QVQLVESGGGLVQAGGSLRIRCAASGSIFGFYALGWSRHAPGKERELVASISWRGSRTYYADSVKGRFTISRDNAKNTVYLQMNSLKPEDSAVYYCNAVAYVSSPQYVSTATGYGYWGQGTQVTVSS
5. QVQLVESGGVLVQAGGSLRLSCAASGSTFTYNAMGWYRQAPGKEREFVAANSVGGGITYYADSVKGRFTISRDYAKNTVYLQMKSLKPEDTAVYYCAADGEYPHSEDFEYWGQGTQVTVSS
6. QVQLVESGGGLVQAGGSLRLSCAASGFTFARYTMGWYRQAPGKERELVAAISSRGSSTYYADSVKGRFTISRDNAKNTVYLQMNSLKPEDTAVYYCAASPYDTQTLDYAYWGQGTQVTVSS

["low polyreactivity", "low polyreactivity", "high polyreactivity", "high polyreactivity", "low polyreactivity", "high polyreactivity"]

Required: polyreactivity (PSR sort gate), one value per sequence below.
1. QVQLVESGGGLVQAGGSLRLSSAASGSIFYGYAMGWYRQAPGKERELVATISWSAGSTYYADSVKGRFTISRDNAKTTVYLQMNSLKPEDTAVYYCATRVFTSSYRYRYGYWGQGTQVTVSS
2. QVQLEESGGGLVQAGGSLRLSCAASGSIFDVYAIGWYRQAPGKERELVAGINSAGSTYYADSVKGRFTISRDNAKNTVYLQMNSLKPEDSAVYYCAAREYILTPGYQWYTYRGYDYWGQGTQVTVSS
3. QVQLVESGGGLVQAGGSLRLSCAASGFTFRYYAMGWYRPAPGKERELVAGISWSGSRTYYADSVKGRFTISRDSAKNTVYLQMNSLKPEDTAVYYCAKVNSYGPVPDRYDYWGQGTQVTVSS
4. QVQLVESGGGLVQAGGSLRLSCAASGSTFWRYAMGWYRQAPGKERELVAGITWNGGSTYYADSVKGRFTISRDNAKNTVYLQMNSLKPEDTAVYYCAARRTWGYIYRLGYGMDYWGQGTQVTVSS
5. QVQLVESGGGLGQAGGSLRLSCAASGRIFPKYVMGWYRQAPGKERELVAAIDKSADRTYYADSVKGRFTISRDNAKNTVYLQMNSLKPEDTAVYYCATAGYRLLDYWGQGTQVTVSS

["high polyreactivity", "low polyreactivity", "high polyreactivity", "high polyreactivity", "high polyreactivity"]

Required: polyreactivity (PSR sort gate), one value per sequence below.
1. QVQLVESGGGLVQAGGSLRLSCAASGRTLDVNAMGWYRQAPGKEKELVAAIDWGVGTTYYADSVKGRFTISRDNAKNTVYLQMNSLKPEDTAVYYCSVDVYYSVYGYPVQYYYWGQGNQVTVSS
2. QVQLVESGGGLVQAGGSLRLSCAASGRTFGYNGMGWYRQAPGKERELVAAINSGGNTNYADSVKGRFTISRDNAKNTVYLQMNSLKPEDTSVYYCAKYGTLYEPVPNEYDYWGQGTQVTVSS
3. QVQLVESGGGLVQAGGSLRISCAASGSTFQLYSMGWSRQAPGKEREFVAAITYSGGGSTSYADSVKGRFTISRDNAKNTVYLQMNSLKPEDTAVFYCAARDFETDGYTLVAYNYWGQGSQVTVSS

high polyreactivity
low polyreactivity
low polyreactivity

Give the measured polyreactivity (PSR sort gate) of QVQLVESGGALLQAGGSLRLSCAASGRIFYHYAMGWYRQAPGKESELVAASTWSGVSTYYADSVKGRFTISRDNAKNTVDLQMNRLIPADTAVYYCATSSPYGVRRYSRGSWGQGTQVTVSS . high polyreactivity
